# System: isolated mouse liver mitochondria
# testMethodNotes: Loss of mitochondrial transmembrane potential
# Format: biochemical
# conditionDescription: 20% of maximal loss of ΔΨm (50µM mClCCP = 100%), 30-min incubation
Mark FALSE for ΔΨm loss EC20 values under 200 µM, and TRUE for everything at or above.

Here's what some known entries look like.
NC12CC3CC(CC(C3)C1)C2 [Amantadine] : TRUE
Nc1nc2ncc(CNc3ccc(C(=O)N[C@@H](CCC(=O)O)C(=O)O)cc3)nc2c(=O)[nH]1 [Folic acid] : TRUE
O=P(O)(O)C(Cl)(Cl)P(=O)(O)O [Clodronate] : TRUE
CC[C@H]1OC(=O)[C@H](C)[C@@H](O[C@H]2C[C@@](C)(OC)[C@@H](O)[C@H](C)O2)[C@H](C)[C@@H](O[C@@H]2O[C@H](C)C[C@H](N(C)C)[C@H]2O)[C@](C)(O)C[C@@H](C)/C(=N\OCOCCOC)[C@H](C)[C@@H](O)[C@]1(C)O [Roxithromycin] : TRUE
CO[C@@H]1[C@@H](OC(N)=O)[C@@H](O)[C@H](Oc2ccc3c(O)c(NC(=O)c4ccc(O)c(CC=C(C)C)c4)c(=O)oc3c2C)OC1(C)C [Novobiocin] : TRUE
Nc1ccn([C@@H]2CS[C@H](CO)O2)c(=O)n1 [Lamivudine] : TRUE

Please indicate if the recorded ΔΨm loss EC20 for CCN(CC)C(=S)SSC(=S)N(CC)CC [Disulfiram] meets or exceeds 200 µM.
FALSE

Hi, just wondering whether O=C(O)c1ccccc1Nc1cccc(C(F)(F)F)c1 [Flufenamic acid] shows ΔΨm loss EC20 of 200 µM or higher.
FALSE

----------
# Tested on: isolated mouse liver mitochondria, complex I
# testMethodNotes: Oxygen consumption through complex I
# conditionDescription: inhibition of oxygen consumption, malate + glutamate + ADP; 2µM rotenone = 100%
readoutType: O2 cons CI EC20 (µM)
Give the number; µM is assumed, so skip it.

Here are 2 compounds together with their reported answers.
Cc1c(N(C)CS(=O)(=O)[O-])c(=O)n(-c2ccccc2)n1C.[Na+] : 107.3
C[C@](N)(Cc1ccc(O)c(O)c1)C(=O)O : 63.1

Let us move to another entry and its O2 cons CI EC20.
Report O2 cons CI EC20, nothing else, for this compound: CC(C)Cc1ccc(C(C)C(=O)O)cc1 (stereo not shown)
132.1

----------
# System: isolated mouse liver mitochondria, complex I
# testMethodNotes: Oxygen consumption through complex I
# conditionDescription: inhibition of oxygen consumption, malate + glutamate + ADP; 2µM rotenone = 100%
Attribute: O2 cons CI EC20

Cc1cc2nc3c(=O)[nH]c(=O)nc-3n(C[C@H](O)[C@H](O)[C@H](O)CO)c2cc1C : 182.8 µM
CCOC(=O)c1ccc(O)cc1 : 47.8 µM
CN1CCC[C@H]1c1cccnc1 : 312 µM
CC(=O)Oc1ccccc1C(=O)O : 149.8 µM
NC(=O)c1cnccn1 [Pyrazinamide] : 190.9 µM

Give the reported O2 cons CI EC20 for this molecule. `O=C1NS(=O)(=O)c2ccccc21`
179.4 µM

Identify O2 cons CI EC20 associated with the molecule `OC(Cn1cncn1)(Cn1cncn1)c1ccc(F)cc1F`
186.6 µM

Check the records and state O2 cons CI EC20 for `O=C(O)CCCC[C@@H]1SC[C@@H]2NC(=O)N[C@@H]21`
> 400 µM

Give the value of O2 cons CI EC20 reported for the following: Cc1c(C)c2c(c(C)c1O)CCC(C)(COc1ccc(CC3SC(=O)NC3=O)cc1)O2 (stereo not drawn)
6.0 µM

Please look at this molecule and report its O2 cons CI EC20: `CO[C@@H]1[C@@H](OC(N)=O)[C@@H](O)[C@H](Oc2ccc3c(O)c(NC(=O)c4ccc(O)c(CC=C(C)C)c4)c(=O)oc3c2C)OC1(C)C`
173.5 µM

Could you please provide reported O2 cons CI EC20 for `COc1cc(/C=C/C(=O)CC(=O)/C=C/c2ccc(O)c(OC)c2)ccc1O` ? Thanks!
> 200 µM

Give reported O2 cons CI EC20 value for [Cl][Mn][Cl] [Manganese chloride]
> 400 µM

For `CCCN(CCC)C(=O)Cc1c(-c2ccc(Cl)cc2)nc2ccc(Cl)cn12` , write its O2 cons CI EC20.
29.6 µM

Consider the molecule `Cc1cc(NS(=O)(=O)c2ccc(N)cc2)no1` . State its measured O2 cons CI EC20.
> 400 µM

Output O2 cons CI EC20 of `CC[C@H]1OC(=O)[C@H](C)[C@@H](O[C@H]2C[C@@](C)(OC)[C@@H](O)[C@H](C)O2)[C@H](C)[C@@H](O[C@@H]2O[C@H](C)C[C@H](N(C)C)[C@H]2O)[C@](C)(O)C[C@@H](C)C(=O)[C@H](C)[C@@H](O)[C@]1(C)O`
27.9 µM

Return O2 cons CI EC20 (reported value) for this molecule: CC1=C(CC(=O)O)c2cc(F)ccc2/C1=C\c1ccc([S+](C)[O-])cc1 (stereo not drawn)
35.6 µM

Read the entry `Cn1c(=O)c2c(ncn2C)n(C)c1=O` and write its reported O2 cons CI EC20.
> 400 µM

Give reported O2 cons CI EC20 value for `O=C1CN(/N=C/c2ccc([N+](=O)[O-])o2)C(=O)N1`
8.7 µM

Output O2 cons CI EC20 of `NCCS(=O)(=O)O`
> 800 µM

----------
# System: isolated mouse liver mitochondria
# testMethodNotes: Loss of mitochondrial transmembrane potential
# Assay type: biochemical
# conditionDescription: 20% of maximal loss of ΔΨm (50µM mClCCP = 100%), 30-min incubation
readoutType: ΔΨm loss EC20 (µM)
Just the number please, in µM, no unit attached.

# annotated cases, reported ΔΨm loss EC20 shown
CCN(CC)CCNC(=O)c1c(C)[nH]c(/C=C2\C(=O)Nc3ccc(F)cc32)c1C [Sunitinib] : 23.2
[H]/N=C(/N)N[C@H]1[C@H](O)[C@@H](O)[C@H](O[C@@H]2O[C@@H](C)[C@](O)(C=O)[C@H]2O[C@@H]2O[C@@H](CO)[C@H](O)[C@@H](O)[C@@H]2NC)[C@@H](N/C(N)=N\[H])[C@@H]1O [Streptomycin] : 78.8
O=C(N/N=C/c1ccc([N+](=O)[O-])o1)c1ccc(O)cc1 [Nifuroxazide] : 388.2

Recall and state the measured ΔΨm loss EC20 for CNC(=C[N+](=O)[O-])NCCSCc1ccc(CN(C)C)o1 [Ranitidine] .
368.1

Specify ΔΨm loss EC20 for CC[C@H](C)C(=O)O[C@H]1C[C@@H](C)C=C2C=C[C@H](C)[C@H](CC[C@@H]3C[C@@H](O)CC(=O)O3)[C@H]21 [Lovastatin] and stop.
43.6

Indicate the recorded ΔΨm loss EC20 value for this compound: CS(=O)(=O)Nc1ccc([N+](=O)[O-])cc1Oc1ccccc1 [Nimesulide]
10.1

Give ΔΨm loss EC20 for the following compound: Cc1c(N(C)CS(=O)(=O)[O-])c(=O)n(-c2ccccc2)n1C.[Na+] [Dipyrone]
354.4

Look up and state reported ΔΨm loss EC20 for Cc1ccc(C(=O)c2cc(O)c(O)c([N+](=O)[O-])c2)cc1 [Tolcapone]
3.9

Hello, please tell me recorded ΔΨm loss EC20 for this one: CC/C(=C(\c1ccccc1)c1ccc(OCCN(C)C)cc1)c1ccccc1 [Tamoxifen]
2.9

Determine from records and report ΔΨm loss EC20 for Cc1ccc(Nc2c(F)cccc2Cl)c(CC(=O)O)c1 [Lumiracoxib]
148.8

----------
The following molecules are shown together with reported ΔΨm loss EC20 values.
# System: isolated mouse liver mitochondria
# testMethodNotes: Loss of mitochondrial transmembrane potential
# Assay type: biochemical
# conditionDescription: 20% of maximal loss of ΔΨm (50µM mClCCP = 100%), 30-min incubation
Use µM as the unit, but write only the number.

COc1cccc2c1C(=O)c1c(O)c3c(c(O)c1C2=O)C[C@@](O)(C(=O)CO)C[C@@H]3O[C@H]1C[C@H](N)[C@H](O)[C@H](C)O1 [Doxorubicin] : 8.9
O=c1ccc2ccccc2o1 [Coumarin] : 0.9
CNC(=O)c1cc(Oc2ccc(NC(=O)Nc3ccc(Cl)c(C(F)(F)F)c3)cc2)ccn1 [Sorafenib] : 0.5
Sc1ncnc2nc[nH]c12 [Mercaptopurine] : 406.9
C=CCN1CC[C@]23c4c5ccc(O)c4O[C@H]2C(=O)CC[C@@]3(O)[C@H]1C5 [Naloxone] : 298.7
NNC(=O)c1ccncc1 [Isoniazide] : 504.6

Now for a further molecule.
Given the molecule CC(C)Cc1ccc(C(C)C(=O)O)cc1 (stereo not shown) [Ibuprofen] , write its reported ΔΨm loss EC20.
355.9

----------
# System: isolated mouse liver mitochondria
# testMethodNotes: Loss of mitochondrial transmembrane potential
# Assay type: biochemical
# conditionDescription: 20% of maximal loss of ΔΨm (50µM mClCCP = 100%), 30-min incubation
Property: ΔΨm loss EC20; scope: individual compounds
Hi! Could you send only the number? It should be in µM, unit omitted.

CCCCc1oc2ccccc2c1C(=O)c1cc(I)c(OCCN(CC)CC)c(I)c1 : 2.6
O=C(O)c1cc(-c2ccc(F)cc2F)ccc1O : 17.9
CC[C@]1(O)C[C@@H]2CN(CCc3c([nH]c4ccccc34)[C@@](C(=O)OC)(c3cc4c(cc3OC)N(C)[C@H]3[C@@](O)(C(=O)OC)[C@H](OC(C)=O)[C@]5(CC)C=CCN6CC[C@]43[C@@H]65)C2)C1 : 25.7
Cc1c(Cl)cccc1Nc1ccccc1C(=O)O : 7.1
COc1cccc(C2(O)CCCCC2CN(C)C)c1 (centres unmarked) : 263.8
Cc1ccc(NC(=O)c2ccc(CN3CCN(C)CC3)cc2)cc1Nc1nccc(-c2cccnc2)n1 : 25.7

Now consider the entry below.
Determine from records and report ΔΨm loss EC20 for `OC(Cn1cncn1)(Cn1cncn1)c1ccc(F)cc1F`
512.7

The reported numbers originate from paper PMC3446843.
